test system: P12-Ichikawa; assay: cell viability relative to DMSO control; higher = less cytotoxic; conditions: HPLM + 10% dialyzed FBS; 48 h; 1.71 µM
METRIC_NAME: cell viability (%)
Write the value in % as a bare number.

Prompt: Check the records and state cell viability for `Oc1ccc2ccccc2c1SSc1c(O)ccc2ccccc12`
Completion: 109

Prompt: Given CC(C)CC(N(C)C)C1(c2ccc(Cl)cc2)CCC1 (centres undefined) , respond with its cell viability.
Completion: 86.3

Prompt: # return recorded cell viability for input `CCCCCN(CCC12CC3CC(CC(C3)C1)C2)C(=O)NCCCc1ccncc1`
Completion: 108

Prompt: Identify measured cell viability corresponding to OC[C@H]1OC(OC2=CC3=C(C(=C2)O)C(=O)\C(=C/O3)C4=CC=C(O)C=C4)[C@H](O)[C@@H](O)[C@@H]1O (some centres undefined)
Completion: 84.1

Prompt: Specify measured cell viability for `COc1cc2ncn(-c3cc(OCc4ccccc4C(F)(F)F)c(C(N)=O)s3)c2cc1OC` .
Completion: 45.2

Prompt: Query cell viability for `O=C1CCCC(=O)C1C(=O)c1ccc(C(F)(F)F)cc1[N+](=O)[O-]`
Completion: 105

Prompt: Tell us which cell viability value is on record for `Cc1ccc(-c2cc(C(F)(F)F)nn2-c2ccc([S+](N)(=O)[O-])cc2)cc1`
Completion: 117

Prompt: Return reported cell viability. Input molecule: `O=C(NCC1CCOCC1)c1cnc(Nc2ccc(Cl)cc2Cl)nc1C(F)(F)F`
Completion: 115

Prompt: Name the recorded cell viability of the item `C[N]1C=C(C=N1)C2=CC=C3N=CC\4=C(N(C(=O)\C=C4)C5=CC6=C(CCN6C(=O)C=C)C=C5)C3=C2` in your answer.
Completion: 95.4

====

test system: SEM cells; assay: cell viability relative to DMSO control; higher = less cytotoxic; conditions: RPMI 5 mM glucose + 10% dialyzed FBS; 48 h; 0.00702 µM
METRIC_NAME: cell viability (%)
The reply should contain only the number, in %.

Prompt: Annotate the compound `NCCc1ccc(O)c(O)c1` with its measured cell viability.
Completion: 107

Prompt: Check the records and state cell viability for `COc1cc2ncnc(Nc3cccc(Cl)c3)c2cc1OC`
Completion: 93

Prompt: State its cell viability for this compound: `NC\1=N\C(=O)N(\C=C1F)[C@H]2C[C@H](O)[C@@H](CO)O2`
Completion: 93

Prompt: Return the recorded cell viability value; entry: `COC(=O)[C@H](c1ccccc1Cl)N1CCc2sccc2C1`
Completion: 86.5

Prompt: Could you please provide reported cell viability for `N#Cc1ccc(NC(=O)Nc2ccccc2Br)c2nn[nH]c12` ? Thanks!
Completion: 108

Prompt: Output measured cell viability for this item: `Cn1cnc([N+](=O)[O-])c1Sc1ncnc2nc[nH]c12`
Completion: 84.6

Prompt: Provide measured cell viability value, entry: `CN(C)CCOc1ccc(/C(=C(/CCCl)c2ccccc2)c2ccccc2)cc1`
Completion: 83.6

Prompt: Supply recorded cell viability for `CN(C)[C@@H](CCOc1cccc2ccccc12)c1ccccc1` here.
Completion: 117

Prompt: # return recorded cell viability for entry `C1CN\2C[C@@H](\N=C2S1)C3=CC=CC=C3`
Completion: 100

Prompt: Quick one: give measured cell viability for `Cc1cnc(Nc2ccc(N3CCN(C)CC3)cc2)nc1Nc1cccc([S+](=O)([O-])NC(C)(C)C)c1`
Completion: 119

Prompt: Give me measured cell viability, please, for this compound: `C1COC(NC(C2CC2)C2CC2)=N1`
Completion: 66.9

Values were extracted from the supplement of paper PMC11451515.
